Tested on: S1-M1-3.2 cells
Settings: compound alone; concentration that causes greater than 20% cell death of S1-M1-3.2 cells
For each entry below, report its Toxicity (>20%) value.
Kindly provide the numeric value in µM only, without the unit symbol.

For reference, reported Toxicity (>20%) for CC(C)CC1c2[nH]c3ccccc3c2CC2C(=O)N3CCCCC3C(=O)N21 (stereo not shown) [Example 19a] stands at 50.0

For reference, reported Toxicity (>20%) for O=C(NCCC[C@H]1c2[nH]c3ccccc3c2C[C@H]2C(=O)N3CCC[C@H]3C(=O)N21)OCc1ccccc1 [Example 24b] stands at 20

For reference, reported Toxicity (>20%) for COc1ccc2c3c(n(CC=C(C)C)c2c1)[C@H](C=C(C)C)N1C(=O)[C@@H]2CCCN2C(=O)[C@]1(O)[C@H]3O [Fumitremorgin B] stands at 15.0

For reference, reported Toxicity (>20%) for CC(C)C[C@@H]1c2[nH]c3ccccc3c2C[C@@H]2C(=O)N3CCC[C@@H]3C(=O)N21 [Example 17a] stands at 50.0

----------
Test system: S1-M1-3.2 cells
Conditions: compound alone; concentration that causes greater than 20% cell death of S1-M1-3.2 cells
measurement.kind: Toxicity (>20%)

For reference, reported Toxicity (>20%) for CCCCCCCCC[C@H]1c2[nH]c3ccccc3c2C[C@H]2C(=O)N3CCC[C@H]3C(=O)N21 stands at 7.0 µM

For reference, reported Toxicity (>20%) for CC(C)CC1c2[nH]c3ccccc3c2CC2C(=O)N3CCCCC3C(=O)N21 (stereo not shown) [Example 21b] stands at >80.0 µM

For reference, reported Toxicity (>20%) for COc1ccc2c3c(n(CC=C(C)C)c2c1)[C@H](C=C(C)C)N1C(=O)[C@@H]2CCCN2C(=O)[C@@H]1C3 stands at 2.0 µM

For reference, reported Toxicity (>20%) for CC(C)C[C@@H]1c2[nH]c3ccccc3c2C[C@@H]2C(=O)N3CCC[C@H]3C(=O)N21 [Example 15a] stands at >80.0 µM

For reference, reported Toxicity (>20%) for CC(C)CC1c2[nH]c3ccccc3c2CC2C(=O)N3CCCCC3C(=O)N21 (stereo not shown) [Example 18b] stands at 25.0 µM

For reference, reported Toxicity (>20%) for O=C(NCCC[C@@H]1c2[nH]c3ccccc3c2C[C@H]2C(=O)N3CCC[C@H]3C(=O)N12)OCc1ccccc1 [Example 24a] stands at 50 µM

For reference, reported Toxicity (>20%) for CC(C)CC1c2[nH]c3ccccc3c2CC2C(=O)N3CCCCC3C(=O)N21 (stereo not shown) [Example 21a] stands at 10.0 µM

For reference, reported Toxicity (>20%) for CC(C)CC1c2[nH]c3ccccc3c2CC2C(=O)N3CCCCC3C(=O)N21 (stereo not shown) [Example 18a] stands at 15.0 µM

For reference, reported Toxicity (>20%) for O=C1[C@@H]2Cc3c([nH]c4ccccc34)CN2C(=O)[C@@H]2CCCN12 stands at >80 µM

For reference, reported Toxicity (>20%) for CC(=O)NCCC[C@H]1c2[nH]c3ccccc3c2C[C@H]2C(=O)N3CCC[C@H]3C(=O)N21 stands at >80 µM

For reference, reported Toxicity (>20%) for CC(C)C[C@H]1c2[nH]c3ccccc3c2C[C@H]2C(=O)N3CCC[C@@H]3C(=O)N21 [Example 16b] stands at >80.0 µM

For reference, reported Toxicity (>20%) for CC(C)C[C@H]1c2[nH]c3ccccc3c2C[C@@H]2C(=O)N3CCC[C@H]3C(=O)N21 [Example 15b] stands at >80.0 µM

For reference, reported Toxicity (>20%) for CC(C)C[C@@H]1c2[nH]c3ccccc3c2C[C@H]2C(=O)N3CC[C@H]3C(=O)N12 [Example 22a] stands at 80.0 µM

For reference, reported Toxicity (>20%) for O=C(O)CCC(=O)NCCC[C@H]1c2[nH]c3ccccc3c2C[C@H]2C(=O)N3CCC[C@H]3C(=O)N21 stands at >80 µM

For reference, reported Toxicity (>20%) for CC(C)C[C@H]1c2[nH]c3ccccc3c2C[C@@H]2C(=O)N3CCC[C@@H]3C(=O)N21 [Example 17b] stands at >80.0 µM

For reference, reported Toxicity (>20%) for CC(C)C[C@H]1c2[nH]c3ccccc3c2C[C@H]2C(=O)N3CCC[C@H]3C(=O)N21 [Example 14b] stands at 35.0 µM

----------
System: S1-M1-3.2 cells
Details: S1-M1-3.2 cells, drug 40 μM; survival alone minus survival with 3.2 μM mitoxantrone
For each entry below, report its Difference Score value.

For reference, reported Difference Score for COc1ccc(C(C#N)(CCCCCN2CCc3cc(OC)c(OC)cc3C2)Sc2ccc(C)cc2)cc1OC (stereo not shown) [reference compound] stands at 0

For reference, reported Difference Score for COc1ccc2c3c4n(c2c1)[C@@H](C=C(C)C)OOC(C)(C)C[C@@H]4N1C(=O)[C@@H]2CCCN2C(=O)[C@]1(O)[C@H]3OCC=C(C)C [Fumitremorgin A] stands at 16

For reference, reported Difference Score for COc1ccc2c3c(n(CC=C(C)C)c2c1)[C@H](C=C(C)C)N1C(=O)[C@@H]2CCCN2C(=O)[C@]1(O)[C@H]3O [Fumitremorgin B] stands at 21

For reference, reported Difference Score for COc1ccc2c3c([nH]c2c1)[C@H](C=C(C)C)N1C(=O)[C@@H]2CCCN2C(=O)[C@@H]1C3 [Fumitremorgin C] stands at 94

----------
Tested on: S1-M1-3.2 cells
Details: S1-M1-3.2 cells, drug 0.1 μM
measurement.kind: Per Cent Survival with 3.2 μM mitoxantrone (Per Cent)
Kindly provide the numeric value in Per Cent only, without the unit symbol.

For reference, reported Per Cent Survival with 3.2 μM mitoxantrone for COc1ccc2c3c([nH]c2c1)[C@H](C=C(C)C)N1C(=O)[C@@H]2CCCN2C(=O)[C@@H]1C3 stands at 95

For reference, reported Per Cent Survival with 3.2 μM mitoxantrone for COc1ccc(CCN(C)CCCC(C#N)(c2ccc(OC)c(OC)c2)C(C)C)cc1OC (centres unmarked) [Verapamil, reference compound] stands at 98

For reference, reported Per Cent Survival with 3.2 μM mitoxantrone for COc1ccc2c3c(n(CC=C(C)C)c2c1)[C@H](C=C(C)C)N1C(=O)[C@@H]2CCCN2C(=O)[C@]1(O)[C@H]3O stands at 91

For reference, reported Per Cent Survival with 3.2 μM mitoxantrone for COc1ccc(C(C#N)(CCCCCN2CCc3cc(OC)c(OC)cc3C2)Sc2ccc(C)cc2)cc1OC (centres unmarked) [reference compound] stands at 98

For reference, reported Per Cent Survival with 3.2 μM mitoxantrone for COc1ccc2c3c4n(c2c1)[C@@H](C=C(C)C)OOC(C)(C)C[C@@H]4N1C(=O)[C@@H]2CCCN2C(=O)[C@]1(O)[C@H]3OCC=C(C)C stands at 96

----------
System: S1-M1-3.2 cells
Conditions: S1-M1-3.2 cells, drug 80 μM; survival alone minus survival with 3.2 μM mitoxantrone
measurement.kind: Difference Score
The reply should be a number, written without any unit.

So the reported Difference Score for COc1ccc2c3c4n(c2c1)[C@@H](C=C(C)C)OOC(C)(C)C[C@@H]4N1C(=O)[C@@H]2CCCN2C(=O)[C@]1(O)[C@H]3OCC=C(C)C , on S1-M1-3.2 cells, turned out to be 7

So the reported Difference Score for COc1ccc(C(C#N)(CCCCCN2CCc3cc(OC)c(OC)cc3C2)Sc2ccc(C)cc2)cc1OC (stereo not shown) [reference compound] , on S1-M1-3.2 cells, turned out to be 0

So the reported Difference Score for COc1ccc2c3c(n(CC=C(C)C)c2c1)[C@H](C=C(C)C)N1C(=O)[C@@H]2CCCN2C(=O)[C@]1(O)[C@H]3O , on S1-M1-3.2 cells, turned out to be 6

So the reported Difference Score for COc1ccc2c3c([nH]c2c1)[C@H](C=C(C)C)N1C(=O)[C@@H]2CCCN2C(=O)[C@@H]1C3 , on S1-M1-3.2 cells, turned out to be 81

----------
For each entry below, report its Per Cent Survival Alone value.
Test system: S1-M1-3.2 cells
Details: S1-M1-3.2 cells, drug 0.1 μM alone, 3 days
Kindly provide the numeric value in Per Cent only, without the unit symbol.

For reference, reported Per Cent Survival Alone for COc1ccc2c3c(n(CC=C(C)C)c2c1)[C@H](C=C(C)C)N1C(=O)[C@@H]2CCCN2C(=O)[C@]1(O)[C@H]3O [Fumitremorgin B] stands at 94

For reference, reported Per Cent Survival Alone for COc1ccc(CCN(C)CCCC(C#N)(c2ccc(OC)c(OC)c2)C(C)C)cc1OC (centres unmarked) [Verapamil, reference compound] stands at 100

For reference, reported Per Cent Survival Alone for COc1ccc2c3c([nH]c2c1)[C@H](C=C(C)C)N1C(=O)[C@@H]2CCCN2C(=O)[C@@H]1C3 [Fumitremorgin C] stands at 105

For reference, reported Per Cent Survival Alone for COc1ccc2c3c4n(c2c1)[C@@H](C=C(C)C)OOC(C)(C)C[C@@H]4N1C(=O)[C@@H]2CCCN2C(=O)[C@]1(O)[C@H]3OCC=C(C)C [Fumitremorgin A] stands at 95

For reference, reported Per Cent Survival Alone for COc1ccc(C(C#N)(CCCCCN2CCc3cc(OC)c(OC)cc3C2)Sc2ccc(C)cc2)cc1OC (centres unmarked) [reference compound] stands at 98
